study_target: Arabidopsis thaliana SHMT
method_description: SHMT activity assay (ED50 SHMT), coupled with N5,N10-CH2-THF dehydrogenase, NADH at 340 nm
Format: biochemical
run_parameters: Table 2; values given as upper bounds
measurement_type: EC50

Record excerpt, results attached:
Task: Query: EC50; subject: Cc1n[nH]c2c1C(c1cc(O)cc(Cl)c1)(C1CCC1)C(C#N)=C(N)O2 (stereo not shown)
Result: < 10 µM

Task: Query: EC50; subject: CCC1(c2cc(F)cc(C(F)(F)F)c2)C(C#N)=C(N)Oc2[nH]nc(C)c21 (stereo not shown)
Result: < 0.1 µM

Task: Query: EC50; subject: CCC1(c2ccc(C(F)(F)F)c(F)c2)C(C#N)=C(N)Oc2[nH]nc(C)c21 (stereo not shown)
Result: < 10 µM

Now consider the entry below.
Task: Query: EC50; subject: CCCC1(c2ccc(Cl)c(Cl)c2)C(C#N)=C(N)Oc2[nH]nc(C)c21 (stereo not shown)
Result: < 1 µM
